Test system: Mus musculus
measurement.notes: Neurotoxicity in Swiss albino CF1 mouse assessed as decrease in locomotor activity at 30 mg/kg, ip after 4 hrs postdose
Assay type: toxicity, organism-based
Design: dose 30 mg/kg, route intraperitoneal; scale not given: the % may be the effect or the level left
condition.label: in vivo
Quick rule: Activity of at least 40% means MET, below that means NOT MET.

The examples below pair each entry with its known result.
INSERT INTO assay_data (compound, answer_label) VALUES
  ('O=C(CN1C(=O)c2ccccc2C1=O)NN1C(=O)CSC1/C=C/c1ccccc1 (configuration not stated)', 'MET'),
  ('O=C(CN1C(=O)c2ccccc2C1=O)NN1C(=O)CSC1c1ccc(Cl)cc1Cl (configuration not stated)', 'NOT MET');

Prompt: # bool: Activity of O=C(CN1C(=O)c2ccccc2C1=O)NN1C(=O)CSC1c1c[nH]c2ccccc12 (configuration not stated) >= 40%
Completion: NOT MET

Prompt: Could you do the same for COc1ccc(C2SCC(=O)N2NC(=O)CN2C(=O)c3ccccc3C2=O)cc1 (configuration not stated) , please?
Completion: NOT MET

Prompt: Similarly, COc1ccc(C2SCC(=O)N2NC(=O)CN2C(=O)c3ccccc3C2=O)cc1OC (configuration not stated) ?
Completion: NOT MET

Prompt: Please do the same for Cc1ccc(C2SCC(=O)N2NC(=O)CN2C(=O)c3ccccc3C2=O)cc1 (configuration not stated) as well.
Completion: MET

Prompt: # iterate: O=C(CN1C(=O)c2ccccc2C1=O)NN1C(=O)CSC1c1cccs1 (configuration not stated)
Completion: MET

Prompt: # iterate: O=C(CN1C(=O)c2ccccc2C1=O)NN1C(=O)CSC1c1c(F)cccc1Cl (configuration not stated)
Completion: NOT MET

Prompt: Next compound up: O=C(CN1C(=O)c2ccccc2C1=O)NN1C(=O)CSC1c1ccccc1O (configuration not stated)
Completion: NOT MET

Prompt: Repeat with O=C(CN1C(=O)c2ccccc2C1=O)NN1C(=O)CSC1c1ccccc1 (configuration not stated)
Completion: MET

Prompt: Repeat with COc1cc(C2SCC(=O)N2NC(=O)CN2C(=O)c3ccccc3C2=O)ccc1O (configuration not stated)
Completion: NOT MET

Prompt: Queued: O=C(CN1C(=O)c2ccccc2C1=O)NN1C(=O)CSC1c1ccc(O)cc1 (configuration not stated)
Completion: MET

###

Tested on: Mus musculus
measurement.notes: Neurotoxicity in ip dosed Swiss albino CF1 mouse assessed as minimum dose required to produce minimal motor deficit after 4 hrs by rotarod test
Type: toxicity, organism-based
condition.label: in vivo
measure.name: MTC (mg/kg)
Express your answer in mg/kg, writing the number without its unit.

INSERT INTO assay_data (molecule, measure_name, data_value) VALUES
  ('COc1ccc(C2SCC(=O)N2NC(=O)CN2C(=O)c3ccccc3C2=O)cc1 (stereo unspecified)', 'MTC', 300),
  ('O=C(CN1C(=O)c2ccccc2C1=O)NN1C(=O)CSC1c1ccccc1O (stereo unspecified)', 'MTC', 100);

Prompt: Lab note: need MTC with Mus musculus for entry O=C1NC(=O)C(c2ccccc2)(c2ccccc2)N1 [PHENYTOIN] , please look it up.
Completion: 100

Prompt: Same thing, different molecule: O=C(CN1C(=O)c2ccccc2C1=O)NN1C(=O)CSC1c1ccccc1 (stereo unspecified)
Completion: 30

Prompt: What do you have for O=C(CN1C(=O)c2ccccc2C1=O)NN1C(=O)CSC1c1ccc(O)cc1 (stereo unspecified) ?
Completion: 300

Prompt: Also check O=C(CN1C(=O)c2ccccc2C1=O)NN1C(=O)CSC1c1cccs1 (stereo unspecified)
Completion: 100

###

measurement.notes: Octanol-phosphate buffer partition coefficient, log P of the compound at 5 mg after 24 hrs by UV spectroscopic analysis
Format: physicochemical
Listed here: items and their measured logP at 24 h.
Output: the number by itself.

Would you please look over these solved cases?
INSERT INTO results (molecule, data_value) VALUES
  ('Cc1ccc(C2SCC(=O)N2NC(=O)CN2C(=O)c3ccccc3C2=O)cc1 (stereo unspecified)', 2.97),
  ('O=C(CN1C(=O)c2ccccc2C1=O)NN1C(=O)CSC1c1c[nH]c2ccccc12 (stereo unspecified)', 1.59),
  ('O=C(CN1C(=O)c2ccccc2C1=O)NN1C(=O)CSC1c1cccnc1 (stereo unspecified)', 1.25),
  ('COc1ccc(C2SCC(=O)N2NC(=O)CN2C(=O)c3ccccc3C2=O)cc1OC (stereo unspecified)', 2.78),
  ('O=C(CN1C(=O)c2ccccc2C1=O)NN1C(=O)CSC1c1ccc(Cl)cc1Cl (stereo unspecified)', 2.54);

Turning to the following molecule.
Prompt: Query (molecule): O=C(CN1C(=O)c2ccccc2C1=O)NN1C(=O)CSC1c1ccc(Cl)cc1 (stereo unspecified) ; field requested: logP at 24 h
Completion: 3.21

###

Tested on: Mus musculus
measurement.notes: Neurotoxicity in ip dosed Swiss albino CF1 mouse assessed as minimum dose required to produce minimal motor deficit after 0.5 hrs by rotarod test
Format: toxicity, organism-based
condition.label: in vivo
Listed next: entries and their corresponding MTC.
Could you give me the number in mg/kg? Just the number is fine.

Known results for compounds:
INSERT INTO measurements (compound, measure_name, data_value) VALUES
  ('O=C(CN1C(=O)c2ccccc2C1=O)NN1C(=O)CSC1c1ccccc1O (configuration not stated)', 'MTC', 100),
  ('O=C(CN1C(=O)c2ccccc2C1=O)NN1C(=O)CSC1c1ccc(O)cc1 (configuration not stated)', 'MTC', 300),
  ('O=C(CN1C(=O)c2ccccc2C1=O)NN1C(=O)CSC1c1ccccc1 (configuration not stated)', 'MTC', 30),
  ('COc1ccc(C2SCC(=O)N2NC(=O)CN2C(=O)c3ccccc3C2=O)cc1 (configuration not stated)', 'MTC', 300);

Prompt: GET /values?readout=MTC&item= O=C(CN1C(=O)c2ccccc2C1=O)NN1C(=O)CSC1c1ccc(Cl)cc1 (configuration not stated)
Completion: 300

Prompt: Repeat with O=C(CN1C(=O)c2ccccc2C1=O)NN1C(=O)CSC1c1ccc(Cl)cc1Cl (configuration not stated)
Completion: 300

Prompt: Another: O=C1NC(=O)C(c2ccccc2)(c2ccccc2)N1
Completion: 100

###

Test system: Mus musculus
measurement.notes: Neurotoxicity in Swiss albino CF1 mouse assessed as decrease in locomotor activity at 30 mg/kg, ip after 0.5 hrs postdose
Assay type: toxicity, organism-based
Parameters: dose 30 mg/kg, route intraperitoneal; scale not given: the % may be the effect or the level left
condition.label: in vivo
Friendly reminder: Activity below 30% is T, at or above is F.

For orientation, consider the following solved cases.
INSERT INTO measurements (compound, answer_label) VALUES
  ('O=C(CN1C(=O)c2ccccc2C1=O)NN1C(=O)CSC1c1cccnc1 (configuration not stated)', 'T'),
  ('O=C(CN1C(=O)c2ccccc2C1=O)NN1C(=O)CSC1/C=C/c1ccccc1 (configuration not stated)', 'T'),
  ('O=C1NC(=O)C(c2ccccc2)(c2ccccc2)N1 [PHENYTOIN]', 'F'),
  ('O=C(CN1C(=O)c2ccccc2C1=O)NN1C(=O)CSC1c1c[nH]c2ccccc12 (configuration not stated)', 'T'),
  ('O=C(CN1C(=O)c2ccccc2C1=O)NN1C(=O)CSC1c1c(F)cccc1Cl (configuration not stated)', 'T');

Prompt: Is 30% strictly greater than the compound's reported Activity? compound: O=C(CN1C(=O)c2ccccc2C1=O)NN1C(=O)CSC1c1ccc(O)cc1 (configuration not stated)
Completion: F

Prompt: Can you handle Cc1ccc(C2SCC(=O)N2NC(=O)CN2C(=O)c3ccccc3C2=O)cc1 (configuration not stated) next?
Completion: T

Prompt: Another compound: COc1ccc(C2SCC(=O)N2NC(=O)CN2C(=O)c3ccccc3C2=O)cc1 (configuration not stated)
Completion: T

Prompt: Continue with COc1ccc(C2SCC(=O)N2NC(=O)CN2C(=O)c3ccccc3C2=O)cc1OC (configuration not stated)
Completion: T

Prompt: Also check O=C(CN1C(=O)c2ccccc2C1=O)NN1C(=O)CSC1c1ccco1 (configuration not stated)
Completion: T

Prompt: Could you do the same for CN(C)c1ccc(C2SCC(=O)N2NC(=O)CN2C(=O)c3ccccc3C2=O)cc1 (configuration not stated) , please?
Completion: T

Prompt: One more compound: COc1cc(C2SCC(=O)N2NC(=O)CN2C(=O)c3ccccc3C2=O)ccc1O (configuration not stated)
Completion: F

###

Measured minimal effective dose, listed per entry.
Tested on: Mus musculus
measurement.notes: Anticonvulsant activity in ip dosed Swiss albino CF1 mouse assessed as protection against maximal electroshock-induced seizures after 4 hrs
Type: functional
condition.label: read-out: MED
Write the value in mg/kg as a bare number.

Prompt: State the recorded minimal effective dose for this entry: O=C(CN1C(=O)c2ccccc2C1=O)NN1C(=O)CSC1c1ccc(O)cc1 (stereo not given)
Completion: 100

Prompt: Again, but for COc1cc(C2SCC(=O)N2NC(=O)CN2C(=O)c3ccccc3C2=O)ccc1O (stereo not given)
Completion: 100
